target_under_test: UP1 (hnRNP A1 RRM1-RRM2) (UniProt P09651 1-196)
Sequence (P09651 1-196): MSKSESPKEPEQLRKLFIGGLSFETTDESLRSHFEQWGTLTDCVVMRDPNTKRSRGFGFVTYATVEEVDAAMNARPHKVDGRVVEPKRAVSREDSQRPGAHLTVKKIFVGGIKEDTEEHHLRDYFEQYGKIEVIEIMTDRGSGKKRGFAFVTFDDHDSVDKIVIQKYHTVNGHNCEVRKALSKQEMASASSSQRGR
assay_info: ITC; N=1.08; ITC: 20 mM Na phosphate pH 6.5, 100 mM NaCl, no DTT, 25 C; EMSA: 100 mM KCl, 20% glycerol, 0.2 mM EDTA, 100 mM Tris pH 8.0, 0.5 mM DTT, 0.5 mM ATP, 20 mM creatine phosphate, 3.2 mM MgCl2, 4 C; footprint: 12 mM Tris-HCl pH 7.5, 48 mM NaCl, 1.2 mM MgCl2, 37 C
details: protein: recombinant; tags: His tag removed by TEV; single strand
pKd: −log10 of the molar value.
measured_metric: pKd

binder	measured_metric	recorded_value
AGUAGAUUUUCA (ssRNA) [12-mer-mut2]	pKd	6.48
